Taken from PubChem BioAssay (NCATS).

System: CP305
Assay Comment: qHTS profiling for inhibitors of Plasmodium falciparum proliferation (AID 504749); note: nearly all actives have a fitted effect of over 60% in size
Run Conditions: P. falciparum in erythrocytes, SYBR Green DNA, 72 h; series mostly up to 28.7 µM
Inconclusive results are not listed. The source made the active and inactive calls. Calls come from the whole dose curve; as a rule, active = well fitted inhibition curve with a large enough effect; inconclusive = small, poorly fitted or top-dose-only effect; inactive = flat fitted curve, though single readings scatter.
Parameter call: string, one of active, inactive

Would you please look over these solved cases?
CC(=O)NCCCCCC(=O)O inactive
Cn1c(=O)c2[nH]c(Br)nc2n(C)c1=O inactive
CCN1/C(=C/C=C/c2sc3ccccc3[n+]2CC)Sc2ccccc21 active
CC(=O)NC(=O)c1ccccc1O inactive
CCNC(=O)NCc1cccc(Cl)c1 inactive

What was the test verdict on O=C(O)Cc1csc(-c2ccc(Cl)cc2)n1 ?
inactive

Also COc1cc(C(=O)N2CCCCCCC2)cc(OC)c1OC ?
inactive

---

Assay Comment: qHTS of pediatric cancer cell lines to identify multiple opportunities for drug repurposing: Primary screen for SK-N-SH cells (AID 1347098); note: nearly all actives have a fitted effect of over 65% in size
Run Conditions: SK-N-SH viability, CellTiter-Glo luminescence, 48 h; series mostly up to 57 µM
Results filed as inconclusive are left out. The source made the active and inactive calls. The call rests on the fitted dose curve; in most records, active means well fitted cell-killing curve with a large enough effect; inconclusive means small, poorly fitted or top-dose-only effect; inactive means no such curve, though single readings can be large or run the other way.
Parameter call: string, one of active, inactive

Would you please look over these solved cases?
O=C(O)CCNC(=O)c1ccccc1 inactive
NC(=S)N/N=C/c1cccnc1 inactive
CC(=O)Oc1ccc(C)cc1 inactive
CCN1/C(=C/C=C/c2sc3ccccc3[n+]2CC)Sc2ccccc21 active
CN1CCC(OC(c2ccccc2)c2ccccc2)CC1 inactive

What was the test verdict on CC(C)Cn1cnc2c1c(=O)n(C)c(=O)n2C ?
inactive

Also CCOC(=O)Nc1ccc2c(c1)N(C(=O)CCN1CCOCC1)c1ccccc1S2 ?
inactive

Also CCCCCN=C(N)N/N=C/c1c[nH]c2ccc(OC)cc12 ?
active

Also O[C@@H](c1cc(C(F)(F)F)nc2c(C(F)(F)F)cccc12)[C@H]1CCCCN1 ?
active

Also CN1CCC[C@@H]1CCO[C@](C)(c1ccccc1)c1ccc(Cl)cc1 ?
active

Also CCOc1ccccc1OCCN[C@H](C)Cc1ccc(OC)c(S(N)(=O)=O)c1 ?
inactive

Also Cc1cccc(C)c1NC(=O)CN1CCCCCC1 ?
inactive

---

Assay Comment: qHTS of pediatric cancer cell lines to identify multiple opportunities for drug repurposing: Primary screen for OHS-50 cells (AID 1347103);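 note: plate controls were DMSO neutral control for no effect and bortezomib positive control for full effect; nearly all actives have a fitted effect of over 40% in size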
Run Conditions: OHS-50 osteosarcoma viability, CellTiter-Glo luminescence, 48 h; series mostly up to 57.3 µM
Method: Drug repurposing or repositioning has been offered as a strategy for drug development in oncology programs. […] [1] Shen, M et al. Quantitative high-throughput phenotypic screening of pediatric cancer cell lines identifies multiple opportunities for drug repurposing. […] Cells were assayed in growth media at a density of 500-1,000 cells/well. […] After a 15 min incubation at room temperature, samples were analyzed for luminescence intensity using a ViewLux High-throughput CCD imager equipped with clear filters.
Results filed as inconclusive are left out. Calls of active or inactive are those of the source. The call rests on the fitted dose curve; in most records, active means well fitted cell-killing curve with a large enough effect; inconclusive means small, poorly fitted or top-dose-only effect; inactive means no such curve, though single readings can be large or run the other way.
Parameter call: string, one of active, inactive

Would you please look over these solved cases?
Molecule	Classification
C[N+]12CCC(CC1)C(OC(=O)C(O)(c1ccccc1)c1ccccc1)C2 (stereo not drawn)	inactive
NS(=O)(=O)c1cc(C(=O)O)cc(N2CCCC2)c1Oc1ccccc1	inactive
CC(C)[C@@H]1CC[C@@H](C)CC1=O	inactive
O=C1C(CCS(=O)c2ccccc2)C(=O)N(c2ccccc2)N1c1ccccc1 (stereo not drawn)	inactive
Cl/C(=C\n1cncn1)c1ccc(Cl)cc1Cl	inactive

What was the test verdict on CC(C)(C)NC[C@H](O)COc1cccc2c1CCCC2=O ?
inactive

Also Cc1cc(C)cc(OCC2CNC(=O)O2)c1 (stereo not drawn) ?
inactive

---

Assay Comment: Cell Viability - LYMP2-018 (AID 985);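 note: compound exposure lasted 24 hr at 37 °C; nearly all actives have a fitted effect of over 50% in size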
Run Conditions: LYMP2-018 lymphoblastoid cells, viability (qHTS); series mostly up to 92.2 µM
Records with an inconclusive call do not appear. The source made the active and inactive calls. Calls follow the shape of the dose curve; as a rule, active = well fitted cell-killing curve with a large enough effect; inconclusive = small, poorly fitted or top-dose-only effect; inactive = flat fitted curve, though single readings scatter.
Parameter call: string, one of YES (active), NO (inactive)

Would you please look over these solved cases?
Compound	Classification
Oc1c(Cl)cc(Cl)c(Cl)c1Cc1c(O)c(Cl)cc(Cl)c1Cl	YES
C/C=C/c1ccc(O)c(OC)c1	NO

What was the test verdict on CCCN(CCC)S(=O)(=O)c1ccc(C(=O)O)cc1 ?
NO

Also COc1cc([C@H]2Oc3cc([C@H]4Oc5cc(O)cc(O)c5C(=O)[C@@H]4O)ccc3O[C@@H]2CO)ccc1O ?
NO

Also CCOc1ccc(NC(C)=O)cc1 ?
NO

Also COc1ccc(C(=O)c2ccccc2)c(O)c1 ?
NO

Also NCCNc1cccc2ccccc12 ?
NO

Also CCCCC(CC)COC(=O)c1ccc(N(C)C)cc1 (stereo not given) ?
NO

Also OC[C@H]1O[C@@H]2O[C@H]3[C@H](O)[C@@H](O)[C@@H](O[C@H]4[C@H](O)[C@@H](O)[C@@H](O[C@H]5[C@H](O)[C@@H](O)[C@@H](O[C@H]6[C@H](O)[C@@H](O)[C@@H](O[C@H]7[C@H](O)[C@@H](O)[C@@H](O[C@H]8[C@H](O)[C@@H](O)[C@@H](O[C@H]1[C@H](O)[C@H]2O)O[C@@H]8CO)O[C@@H]7CO)O[C@@H]6CO)O[C@@H]5CO)O[C@@H]4CO)O[C@@H]3CO ?
NO

Also NC(=O)c1ccccc1O ?
NO

---

Assay Comment: qHTS Assay for Identifying Gametocytocidal Compounds (AID 743244);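 note: % is set by controls: 0 for no effect and ±100 for the full control effect; actives lower the fluorescent signal which means gametocytes are killed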
Run Conditions: P. falciparum 3D7 stage III-V gametocytes, alamarBlue, 72 h; stronger effect = lower value
Results filed as inconclusive are left out.
Measure: max response (%)
Express the result in % but write the number alone.

Compound	Measure	Readout Number
CC(=O)Nc1ccc(CC(=O)O)cc1	max response	7.88
CC(C)Cn1cnc2c1c(=O)n(C)c(=O)n2C	max response	-4.05
NC(=O)C1(N2CCCCC2)CCN(CCCC(=O)c2ccc(F)cc2)CC1	max response	6.95

What does the record list as max response for CCC(C(=O)OCCOCCN(CC)CC)c1ccccc1 (stereo not drawn) ?
6.25

Also CC(=O)Nc1ccc(S(=O)(=O)Nc2ccc([N+](=O)[O-])cc2)cc1 ?
3.59

---

System: CP265
Assay Comment: qHTS profiling for inhibitors of Plasmodium falciparum proliferation (AID 504749); note: nearly all actives have a fitted effect of over 60% in size
Run Conditions: P. falciparum in erythrocytes, SYBR Green DNA, 72 h; series mostly up to 28.7 µM
Records with an inconclusive call do not appear. Calls of active or inactive are those of the source. Calls follow the shape of the dose curve; as a rule, active = well fitted inhibition curve with a large enough effect; inconclusive = small, poorly fitted or top-dose-only effect; inactive = flat fitted curve, though single readings scatter.
Parameter call: string, one of 1.0 (active), 0.0 (inactive)

Would you please look over these solved cases?
Compound	Classification
NCCNC(=O)c1ccc(Cl)cn1	0.0
CC(=O)Nc1ncc([N+](=O)[O-])s1	0.0
CC(=O)OCC(=O)[C@H]1CC[C@H]2[C@@H]3CCC4=CC(=O)CC[C@]4(C)[C@H]3CC[C@]12C	0.0
CCCCCCCCCCCCCC[N+](C)(C)Cc1ccccc1	1.0
Cc1cc2c(OCC(CNC(C)(C)C)OC(=O)c3ccccc3)cccc2[nH]1 (stereo unspecified)	0.0

What was the test verdict on COc1ccc(CCN(C)CCCN2CCc3cc(OC)c(OC)cc3CC2=O)cc1OC ?
0.0

Also Cc1cccc(C)c1NC(=O)CN1CCCCCC1 ?
0.0

Also Cc1cc(CC(=O)O)c(C)n1-c1ccc(Cl)cc1 ?
0.0

Also CN1CCN(c2cc3c(cc2F)c(=O)c(C(=O)O)cn3-c2ccc(F)cc2)CC1 ?
0.0

Also CCOc1cc(OCC)c(C(=O)CCC(=O)O)cc1OCC ?
0.0

Also CN(C)CCOC(c1ccc(Cl)cc1)c1ccccn1 (stereo unspecified) ?
1.0

---

Test system: PC49
Assay Comment: qHTS profiling for inhibitors of Plasmodium falciparum proliferation (AID 504749); note: nearly all actives have a fitted effect of over 60% in size
Run Conditions: P. falciparum in erythrocytes, SYBR Green DNA, 72 h; series mostly up to 28.7 µM
Description: NIH National Institute of Allergy and Infectious Diseases [NIAID] NIH Chemical Genomics Center [NCGC] […] Because mature erythrocytes lack DNA, only Plasmodium-derived DNA is detected. NCGC Assay Protocol Summary: The SYBR Green viability assay was adapted from a method described previously (Plouffe et al., 2008). […] The following morning, fluorescence intensity at 485(14) nm excitation and 535(25) nm emission wavelengths was measured on an EnVision (Perkin Elmer) plate reader. […]
Results filed as inconclusive are left out. Calls of active or inactive are those of the source. The call rests on the fitted dose curve; in most records, active means well fitted inhibition curve with a large enough effect; inconclusive means small, poorly fitted or top-dose-only effect; inactive means flat fitted curve, though single readings scatter.
Parameter call: string, one of 1.0 = active, 0.0 = inactive

Compound	Study Target	Classification
CC(C)Cc1ccc(CC(=O)O)cc1	PC49	0.0

What was the test verdict on COc1cc(C(=O)NCc2ccc(OCCN(C)C)cc2)cc(OC)c1OC ?
0.0

Also O=C(Nc1ccc([N+](=O)[O-])cc1)Nc1ccc([N+](=O)[O-])cc1 ?
0.0

Also CC(C)Nc1cccnc1N1CCN(C(=O)c2cc3cc(NS(C)(=O)=O)ccc3[nH]2)CC1 ?
0.0

Also N=C(N)N1CCc2ccccc2C1 ?
0.0

Also CCCCCCCCCCCCSCCOCCO ?
0.0

Also CN1CCN(c2cc3c(cc2F)c(=O)c(C(=O)O)cn3-c2ccc(F)cc2)CC1 ?
0.0

Also CCCCCCCCCCCCCCCC(=O)O ?
0.0

Also Nc1nc(N)c(-c2ccccc2)s1 ?
0.0

Also CCCc1ncc(C[n+]2ccccc2C)c(N)n1 ?
0.0
